Molecular target: UniProt P23219
Sequence (P23219 24-599): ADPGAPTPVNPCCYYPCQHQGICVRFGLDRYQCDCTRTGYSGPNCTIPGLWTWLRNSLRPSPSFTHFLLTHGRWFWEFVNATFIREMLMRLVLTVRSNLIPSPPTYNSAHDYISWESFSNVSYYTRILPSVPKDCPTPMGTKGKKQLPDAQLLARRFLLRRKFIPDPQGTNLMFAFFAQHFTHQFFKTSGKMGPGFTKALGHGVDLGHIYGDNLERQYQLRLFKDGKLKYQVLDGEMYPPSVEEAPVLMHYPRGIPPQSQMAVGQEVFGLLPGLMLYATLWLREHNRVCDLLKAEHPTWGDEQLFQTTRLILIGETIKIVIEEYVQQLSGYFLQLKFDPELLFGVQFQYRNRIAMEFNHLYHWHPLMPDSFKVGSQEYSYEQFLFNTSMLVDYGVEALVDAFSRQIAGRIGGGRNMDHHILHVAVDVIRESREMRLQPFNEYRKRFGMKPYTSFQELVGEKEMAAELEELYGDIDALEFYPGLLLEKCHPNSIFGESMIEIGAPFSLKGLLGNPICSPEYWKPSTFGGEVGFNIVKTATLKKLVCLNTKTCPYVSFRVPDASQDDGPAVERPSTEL
Assay: Assay of COX-1 activity from U937 cell microsomes
Assay type: biochemical
Parameters: Assay of COX-1 Activity from U937 cell microsomes; endogenous in cells; host or cells: U937 cells, 100,000×g microsomal pellet
Conditions: PGE2, read-out: COX-1 (IC50 μM) U-937
readout.type: IC50

Example compounds with recorded IC50:
CS(=O)(=O)c1ccc(-c2cnn(Cc3ccc(F)cc3)c(=O)c2-c2ccc(F)cc2)cc1 : 3 to 10 µM
CS(=O)(=O)c1ccc(-c2cnn(Cc3ccccc3F)c(=O)c2-c2ccccc2)cc1 : > 10 µM
CC(C)(C)Cn1ncc(-c2ccc(S(C)(=O)=O)cc2)c(-c2ccc(F)cc2)c1=O : ~10 µM
CS(=O)(=O)c1ccc(-c2cnn(Cc3ccccc3)c(=O)c2Oc2ccc(Br)cn2)cc1 : > 10 µM

Let me check: CC(C)Cn1ncc(-c2ccc(S(C)(=O)=O)cc2)c(-c2ccc(F)cc2)c1=O , system UniProt P23219, measured IC50 is > 10 µM
